# experimental-target: Chaperone protein DnaK (Escherichia coli (strain K12))
# assay-info: binders of DnaK substrate-binding domain, biophysical, NMR, chaperone (AID 1033)
# conditions: Purified DnaK SBD, NMR ligand binding
Activity calls are given as the source filed them. The rule behind the calls is not given here.
reported-metric: Kd

# molecule, reported-metric, result
rows = [
    ("O=c1[nH]c2ccccc2c(=O)n1CCCO", "Kd", "> 4 mM (inactive)"),
    ("Nc1ccc(C2SCCS2)cc1", "Kd", "> 4 mM (inactive)"),
    ("S=C(CN1CCCC1=S)N1CCOCC1", "Kd", "> 4 mM (inactive)"),
    ("O=C(O)c1csc(-c2cccnc2)n1", "Kd", "> 4 mM (inactive)"),
    ("CC1(C)Cn2c(nnc2-c2ccccc2)S1", "Kd", "> 4 mM (inactive)"),
    ("Cc1cc(=O)oc2cc3c(cc12)OCCO3", "Kd", "> 4 mM (inactive)"),
    ("Cc1nnc(NCc2ccc3c(c2)OCO3)[nH]c1=O", "Kd", "> 4 mM (inactive)"),
    ("CC(C)n1c(-c2ccncc2)n[nH]c1=S", "Kd", "> 4 mM (inactive)"),
    ("CC(=O)Nc1ccc(N2C(=O)C=CC2=O)cc1C", "Kd", "> 4 mM (inactive)"),
    ("COc1ccc2cnn(-c3ccccc3)c(=O)c2c1OC", "Kd", "> 4 mM (inactive)"),
    ("Nc1ccnc(C(=O)O)c1", "Kd", "> 4 mM (inactive)"),
    ("COc1ccc(-c2cc3nc4n(c(=O)c3s2)CCC4)cc1", "Kd", "> 4 mM (inactive)"),
    ("COc1cccc(O)c1O", "Kd", "> 4 mM (inactive)"),
    ("NC(=O)c1ccsc1NC(=O)c1ccccc1[N+](=O)[O-]", "Kd", "> 4 mM (inactive)"),
    ("Nc1cc(C(=O)O)ccc1N1CCCCCC1", "Kd", "> 4 mM (inactive)"),
    ("O=C(Nc1ccccc1C(F)(F)F)c1cnccn1", "Kd", "> 4 mM (inactive)"),
    ("CCc1cc2c(SCC(=O)O)ncnc2s1", "Kd", "> 4 mM (inactive)"),
    ("Nc1nc(-c2ccc(Cl)cc2)nn1C(=O)c1cccnc1", "Kd", "> 4 mM (inactive)"),
    ("CC(=O)n1c(N)nc2ccccc21", "Kd", "> 4 mM (inactive)"),
    ("O=c1c(O)c(-c2ccc(O)c(O)c2)oc2cc(O)ccc12", "Kd", "> 4 mM (inactive)"),
    ("COc1ccc(C(=O)/C=C/c2ccccc2)cc1", "Kd", "> 4 mM (inactive)"),
    ("NS(=O)(=O)c1ccc2c3c(cccc13)C(=O)N2", "Kd", "> 4 mM (inactive)"),
    ("Cc1ccn(S(=O)(=O)c2ccc(C(C)(C)C)cc2)n1", "Kd", "> 4 mM (inactive)"),
    ("CCOC(=O)c1c(SC)nc(=O)[nH]c1C", "Kd", "> 4 mM (inactive)"),
    ("O=C(c1ccccc1-c1ccccc1)N1CCOCC1", "Kd", "> 4 mM (inactive)"),
    ("Cc1cc(C)nc(/N=C(\\N)N2CCc3ccccc32)n1", "Kd", "> 4 mM (inactive)"),
    ("CC1=C2C(O)C(=O)OC3CC4C(C)(C)C(=O)C=C[C@]4(C)C(CC1)[C@]23C (stereo partly specified)", "Kd", "> 4 mM (inactive)"),
    ("Cc1ccc(SCCN2C(=O)NC(C)(C)C2=O)cc1", "Kd", "> 4 mM (inactive)"),
    ("CCCCn1c(=O)cc(O)c2ccccc21", "Kd", "> 4 mM (inactive)"),
    ("CCn1nnc(NC(=O)c2cc3ccccc3o2)n1", "Kd", "> 4 mM (inactive)"),
    ("COc1ccc2c(c1)OC/C(=C/c1ccc(OC)c(OC)c1)C2=O", "Kd", "> 4 mM (inactive)"),
    ("Cn1ncc(C(=O)NC2CCCCC2)c1Cl", "Kd", "> 4 mM (inactive)"),
    ("Cc1cc(C)n2c(SCc3c(C)noc3C)nnc2n1", "Kd", "> 4 mM (inactive)"),
    ("O=S(=O)(CCN1CCCC1)c1ccccc1", "Kd", "> 4 mM (inactive)"),
    ("NC(=O)Nc1cccc(C(F)(F)F)c1", "Kd", "> 4 mM (inactive)"),
    ("Cc1noc(C)c1C(=O)N1CCC(Cc2ccccc2)CC1", "Kd", "> 4 mM (inactive)"),
    ("O=c1ccc2cc(O[C@@H]3O[C@H](CO)[C@@H](O)[C@H](O)[C@H]3O)c(O)cc2o1", "Kd", "> 4 mM (inactive)"),
    ("COC1=CC23CCCN2CCc2cc4c(cc2C3C1O)OCO4 (stereo unspecified)", "Kd", "> 4 mM (inactive)"),
    ("O=C(O)CCC(=O)Nc1ccccn1", "Kd", "> 4 mM (inactive)"),
    ("O=C(Nc1cnccn1)c1cccs1", "Kd", "> 4 mM (inactive)"),
    ("Nc1ccc2c(c1)OCCO2", "Kd", "> 4 mM (inactive)"),
    ("S=C(NCC1CCCO1)NC1CC1 (stereo unspecified)", "Kd", "> 4 mM (inactive)"),
    ("Nc1ncnc2c1ncn2[C@@H]1O[C@H](CO)[C@@H](O)[C@H]1O", "Kd", "> 4 mM (inactive)"),
    ("Cc1ccc(C(=O)Nc2c[nH]c(=O)[nH]c2=O)cc1", "Kd", "> 4 mM (inactive)"),
    ("NCCCCN=C(N)N", "Kd", "> 4 mM (inactive)"),
    ("Cc1cc(C(=O)N2CCC3(CC2)OCCO3)cs1", "Kd", "> 4 mM (inactive)"),
    ("COc1nc(C#N)c(N2CCOCC2)o1", "Kd", "> 4 mM (inactive)"),
    ("O=C(O)c1cccc2c1OCCCO2", "Kd", "> 4 mM (inactive)"),
    ("CC(=O)Nc1nc(C)nc(-c2ccccc2)c1C(C)=O", "Kd", "> 4 mM (inactive)"),
    ("NCc1ccc(S(=O)(=O)O)cc1", "Kd", "> 4 mM (inactive)"),
    ("Cc1cc(=O)n2[nH]cnc2n1", "Kd", "> 4 mM (inactive)"),
    ("O=C(NCC1CCCCC1)c1ccco1", "Kd", "> 4 mM (inactive)"),
    ("S=c1[nH]c2cccnc2[nH]1", "Kd", "> 4 mM (inactive)"),
    ("CCOC(=O)C1CCN(Cc2ccccc2)CC1", "Kd", "> 4 mM (inactive)"),
    ("Oc1cc(O)c2c(c1)O[C@H](c1ccc(O)c(O)c1)[C@H](O)C2", "Kd", "> 4 mM (inactive)"),
    ("Nc1ccc(CCC(=O)O)cc1", "Kd", "> 4 mM (inactive)"),
]
